Taken from patent US20260116991A1.

- assay_system: T1, monkey GPC3-His protein (monkey)
- T1 construct: Bought protein; also called monkey GPC3 protein
- assay_explanation: ELISA, monkey GPC3-His coated; antibody 2.67 nM
reported_property: OD450 nm
Form rule: numeric answer, no unit written next to it.

Some solved cases for reference:
>  <binder>
hAb006LH3L1b (antibody, human IgG1, V domains shown, Humanized F3.38.7, H3+L1b) VH: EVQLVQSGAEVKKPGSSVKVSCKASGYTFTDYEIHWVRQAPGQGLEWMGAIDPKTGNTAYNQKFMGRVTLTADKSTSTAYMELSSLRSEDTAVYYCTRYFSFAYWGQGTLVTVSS VL: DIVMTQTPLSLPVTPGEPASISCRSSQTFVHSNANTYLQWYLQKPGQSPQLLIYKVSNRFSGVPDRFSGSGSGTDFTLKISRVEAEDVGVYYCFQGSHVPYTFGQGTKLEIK

>  <OD450 nm>
2.55

$$$$
>  <binder>
hAb001H2L1b (antibody, human IgG1, V domains shown, Humanized F2.169.2, H2+L1b) VH: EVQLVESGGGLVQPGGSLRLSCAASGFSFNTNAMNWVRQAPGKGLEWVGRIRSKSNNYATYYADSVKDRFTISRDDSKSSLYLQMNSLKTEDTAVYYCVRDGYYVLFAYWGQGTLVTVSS VL: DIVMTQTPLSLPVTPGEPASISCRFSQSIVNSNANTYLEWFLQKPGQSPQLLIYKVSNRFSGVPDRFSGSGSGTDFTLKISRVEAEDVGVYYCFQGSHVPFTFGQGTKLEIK

>  <OD450 nm>
2.45

$$$$

Ask: Looking for the measured OD450 nm of hAb001H1aL1a (antibody, human IgG1, V domains shown, Humanized F2.169.2, H1a+L1a) VH: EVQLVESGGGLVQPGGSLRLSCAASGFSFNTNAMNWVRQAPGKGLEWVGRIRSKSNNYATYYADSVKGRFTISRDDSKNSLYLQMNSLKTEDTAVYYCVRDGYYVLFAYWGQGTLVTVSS VL: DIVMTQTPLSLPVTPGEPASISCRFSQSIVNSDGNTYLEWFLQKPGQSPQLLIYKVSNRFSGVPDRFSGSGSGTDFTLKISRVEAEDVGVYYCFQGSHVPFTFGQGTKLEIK , can you help?
Result: 2.44
